System: MV-4-11 (human, Acute Myeloid Leukemia cell line) cells
test_name: Cell growth inhibition assay, GI50 of MV-4-11
Format: cell-based
experimental_setup: Homo sapiens, MV4-11, 72 h, MV-4-11 cells
Procedure: The anti-proliferative activity (cell growth inhibition assay) of the compounds according to the present invention against AML (Acute Myeloid Leukemia) cancer cells was measured. […] The lower the GI50 value, the higher the anti-proliferative activity. […] Also, the background absorbance was measured during the treatment with the test compounds by replacing the test compound with IMDM in the negative control plate. […] The GI50 values were calculated using a Prism 3.0 program.
value_type: GI50 (µM)
Response body: numeric value in µM, unit text excluded.

Reference set (2 entries):
compound	study_target	GI50 [µM]
C=CCN1CC(=O)N2[C@@H](Cc3ccc(O)cc3)C(=O)N(Cc3cccc4c(C(=O)N5CC(N6CCC(OC)CC6)C5)cn(C)c34)C[C@@H]2N1C(=O)NCc1ccccc1	MV-4-11 (human, Acute Myeloid Leukemia cell line) cells	0.0193
C=CCN1CC(=O)N2[C@@H](Cc3ccc(O)cc3)C(=O)N(Cc3cccc4c(C(=O)N5CCN6CCN(CC(C)C)CC6C5)cn(C)c34)C[C@@H]2N1C(=O)NCc1ccccc1 (stereo partly drawn)	MV-4-11 (human, Acute Myeloid Leukemia cell line) cells	0.0018

Query compound follows.
(Q) Using the record for C=CCN1CC(=O)N2[C@@H](Cc3ccc(O)cc3)C(=O)N(Cc3cccc4c(-c5ccc(NC(=O)c6ccc(OC)cc6)cc5)cn(C)c34)C[C@@H]2N1C(=O)NCc1ccccc1 , report its GI50.
(A) 0.01

====

study_target: UniProt P08684
Sequence (P08684 whole entry): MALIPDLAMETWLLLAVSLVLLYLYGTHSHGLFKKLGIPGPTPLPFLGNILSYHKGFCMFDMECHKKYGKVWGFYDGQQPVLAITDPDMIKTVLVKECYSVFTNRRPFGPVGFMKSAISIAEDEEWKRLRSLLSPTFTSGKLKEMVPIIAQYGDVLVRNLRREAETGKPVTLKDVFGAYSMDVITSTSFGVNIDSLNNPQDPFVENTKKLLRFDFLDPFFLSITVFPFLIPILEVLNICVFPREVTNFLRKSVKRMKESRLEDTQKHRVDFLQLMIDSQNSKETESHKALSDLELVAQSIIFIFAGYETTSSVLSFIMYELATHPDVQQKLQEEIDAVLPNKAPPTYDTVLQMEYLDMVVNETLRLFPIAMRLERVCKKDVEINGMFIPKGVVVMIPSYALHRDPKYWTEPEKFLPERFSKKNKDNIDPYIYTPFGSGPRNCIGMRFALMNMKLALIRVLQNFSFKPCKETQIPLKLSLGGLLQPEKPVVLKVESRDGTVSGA
test_name: Measurement of CYP (IC50 of P450 CYP3A4), BFC substrate
Assay type: in vitro ADME
experimental_setup: 20 minutes
value_type: pIC50
Friendly reminder that pIC50 comes from taking -log10 of the concentration in mol/L.

Check out these entries, answers already filled in.
compound	pIC50
C=CCN1CC(=O)N2[C@@H](Cc3ccc(O)cc3)C(=O)N(Cc3cccc4c(C(=O)NCCOCCO)cn(C)c34)C[C@@H]2N1C(=O)NCc1ccccc1 [Compound F-7]	4.79
C=CCN1CC(=O)N2[C@@H](Cc3ccc(O)cc3)C(=O)N(Cc3cccc4c(C(=O)N5CCC6CN(C)CC65)cn(C)c34)C[C@@H]2N1C(=O)NCc1ccccc1 (some centres unmarked) [Compound E-69]	5.35
C=CCN1CC(=O)N2[C@@H](Cc3ccc(O)cc3)C(=O)N(Cc3cccc4c(C(=O)NCCCN5CCOCC5)cn(C)c34)C[C@@H]2N1C(=O)NCc1ccccc1 [Compound F-29]	5.96
C=CCN1CC(=O)N2[C@@H](Cc3ccc(O)cc3)C(=O)N(Cc3cccc4c(C(=O)Nc5ccc(N6CC7CCN(C)C7C6)nc5)cn(C)c34)C[C@@H]2N1C(=O)NCc1ccccc1 (some centres unmarked) [Compound G-64]	5.12
C=CCN1CC(=O)N2[C@@H](Cc3ccc(O)cc3)C(=O)N(Cc3cccc4c(C(=O)NCCN5CCN(C)CC5)cn(C)c34)C[C@@H]2N1C(=O)NCc1ccccc1 [Compound F-27]	4.94

(Q) Please report the recorded pIC50 for C=CCN1CC(=O)N2[C@@H](Cc3ccc(O)cc3)C(=O)N(Cc3cccc4c(C(=O)N5CC(O)C5)cn(C)c34)C[C@@H]2N1C(=O)NCc1ccccc1 [Compound E-70] .
(A) 4.74

(Q) Which pIC50 value belongs to C=CCN1CC(=O)N2[C@@H](Cc3ccc(O)cc3)C(=O)N(Cc3cccc4c(C(=O)N5CCC(O)CC5)cn(C)c34)C[C@@H]2N1C(=O)NCc1ccccc1 [Compound E-51] ?
(A) 4.97

(Q) So what's the measured pIC50 for this one? C=CCN1CC(=O)N2[C@@H](Cc3ccc(O)cc3)C(=O)N(Cc3cccc4c(C(=O)Nc5ccc(N6CCC(N7CCC7)CC6)nc5)cn(C)c34)C[C@@H]2N1C(=O)NCc1ccccc1 [Compound G-54]
(A) 5.48
